Just for reference, paper PMC8268672 is where these values come from.

EC50 overview
# Tested on: Para-influenza-3 virus
# method_summary: CPE reduction assay in Vero cells
# Assay type: cell-based, Parainfluenza-3 virus
# condition_notes: Vero, read-out: Antiviral EC50, Para-influenza-3 virus

Measured EC50, COc1c(C)c2c(c(O)c1C/C=C(\C)CCC(=O)O)C(=O)OC2 [Mycophenolic acid, mycophenolic acid, reference compound] : 0.4 µM

Field EC50 (entry Cc1ccc(S(=O)(=O)N2C(=O)CSC2c2ccccc2Cl)cc1 (stereo not shown) ) reads > 100 µM

The recorded EC50 for Cc1ccc(S(=O)(=O)N2C(=O)CSC2c2ccccc2)cc1 (stereo not shown) is > 100 µM

Recorded result, Cc1ccc(S(=O)(=O)N2C(=O)CSC2c2cccc([N+](=O)[O-])c2)cc1 (stereo not shown) , EC50: > 100 µM

###

# collection of MIC values tested on Klebsiella aerogenes (NCIM-2098)
Quick reminder: number only, in µg/mL, skip the unit.

Solved entries (count: 10):
Cc1ccc(S(=O)(=O)N2C(=O)CSC2c2ccc(Br)cc2)cc1 (centres unmarked)
8
Cc1ccc(S(=O)(=O)N2C(=O)CSC2c2ccc([N+](=O)[O-])cc2)cc1 (centres unmarked)
32
Cc1ccc(S(=O)(=O)N2C(=O)CSC2c2cccc(C)c2)cc1 (centres unmarked)
128
Cc1ccc(S(=O)(=O)N2C(=O)CSC2c2ccc(Cl)cc2)cc1 (centres unmarked)
32
Cc1ccc(S(=O)(=O)N2C(=O)CSC2c2cccc(O)c2)cc1 (centres unmarked)
16
Cc1ccc(S(=O)(=O)N2C(=O)CSC2c2cccc([N+](=O)[O-])c2)cc1 (centres unmarked)
16
CC1(C)S[C@@H]2[C@H](NC(=O)[C@H](N)c3ccccc3)C(=O)N2[C@H]1C(=O)O [AA, Ampicillin, reference compound]
8
Cc1ccc(S(=O)(=O)N2C(=O)CSC2c2ccccc2[N+](=O)[O-])cc1 (centres unmarked)
32
Cc1ccc(S(=O)(=O)N2C(=O)CSC2c2ccc(F)cc2)cc1 (centres unmarked)
16
Cc1ccc(S(=O)(=O)N2C(=O)CSC2c2cccc(Br)c2)cc1 (centres unmarked)
16

Then this compound:
Item Cc1ccc(S(=O)(=O)N2C(=O)CSC2c2cccc(Cl)c2)cc1 (centres unmarked) was tested on Klebsiella aerogenes (NCIM-2098); the reported MIC is 8

###

Test system Cryptococcus neoformans (ATCC 9011), MIC listed for each of the compounds.

Cc1ccc(S(=O)(=O)N2C(=O)CSC2c2ccc(C(C)C)cc2)cc1 (stereo not drawn)
> 512 µg/mL

For Cc1ccc(S(=O)(=O)N2C(=O)CSC2c2ccccc2O)cc1 (stereo not drawn) the compound record lists MIC as 64 µg/mL

Measured MIC of Cc1ccc(S(=O)(=O)N2C(=O)CSC2c2ccccc2Cl)cc1 (stereo not drawn) : 16 µg/mL

Briefly, MIC measured for Cc1ccc(S(=O)(=O)N2C(=O)CSC2c2ccc([N+](=O)[O-])cc2)cc1 (stereo not drawn) : 2 µg/mL

// field: MIC; key: Cc1ccc(S(=O)(=O)N2C(=O)CSC2c2cccc(Br)c2)cc1 (stereo not drawn) ; value = 64 µg/mL

Value of measured MIC for the entry Cc1ccc(S(=O)(=O)N2C(=O)CSC2c2cccc(Cl)c2)cc1 (stereo not drawn) : 32 µg/mL

Lab note: Cc1ccc(S(=O)(=O)N2C(=O)CSC2c2ccc(Br)cc2)cc1 (stereo not drawn) gave MIC of 32 µg/mL
